Let's look at some compounds and their measured viability, T/C.
test system: 885512-296-R-J2-PDC complex spheroid viability; test: Anticancer human tumor 885512-296-R-J2-PDC patient-derived breast carcinoma cell line growth inhibition [GQUAD]; conditions: second compound 0.0316 µM; first compound 0.0316 µM; stronger effect = lower value
Just the number in %, nothing appended.

CC(C)(O)C1CCC(Nc2ccc3ncc(-c4cccc(C(F)(F)F)c4)n3n2)CC1 (stereo not drawn) + Cc1cnc(CNC(=O)c2c(=O)c3ccc(N4CCCN(C)CC4)nc3n3c2sc2ccccc23)cn1 = 91.5
O=C(c1cc(Cc2n[nH]c(=O)c3ccccc23)ccc1F)N1CCN(C(=O)C2CC2)CC1 + CN(C)c1ccc(Nc2c3ccc(NC(=O)CCN4CCCC4)cc3nc3cc(NC(=O)CCN4CCCC4)ccc23)cc1 = 105

Kindly review the next compound as well.
Consider COc1cc(C2c3cc4c(cc3C(OC3OC5COC(C)OC5C(O)C3O)C3COC(=O)C23)OCO4)cc(OC)c1O (stereo not drawn) + Cc1[nH]c2ccc(F)cc2c1-c1nc2c3cccnc3c3ncccc3c2[nH]1 . Its measured viability, T/C is 96.3

----------
test system: 885512-296-R-J2-PDC complex spheroid viability; assay: Anticancer human tumor 885512-296-R-J2-PDC cell line growth inhibition [GQUAD]; conditions: second compound 3.16 µM; first compound 3.16 µM; active means viability on the fitted dose curve at most 10% of control; inactive means the rest;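 further: spheroids exposed to the compounds for one week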
Log the outcome using a class from Yes for active, No for inactive

CC(=O)O[C@H]1C(=O)[C@@]2(C)[C@H]([C@H](OC(=O)c3ccccc3)[C@]3(O)C[C@H](OC(=O)[C@H](O)[C@@H](NC(=O)c4ccccc4)c4ccccc4)C(C)=C1C3(C)C)[C@]1(OC(C)=O)CO[C@@H]1C[C@@H]2O + Cc1cnc(CNC(=O)c2c(=O)c3ccc(N4CCCN(C)CC4)nc3n3c2sc2ccccc23)cn1 = Yes
O=C(c1cc(Cc2n[nH]c(=O)c3ccccc23)ccc1F)N1CCN(C(=O)C2CC2)CC1 + CN(C)c1ccc(Nc2c3ccc(NC(=O)CCN4CCCC4)cc3nc3cc(NC(=O)CCN4CCCC4)ccc23)cc1 = No
COc1cccc2c1C(=O)c1c(O)c3c(c(O)c1C2=O)CC(O)(C(=O)CO)CC3OC1CC(N)C(O)C(C)O1 (centres undefined) + Cc1cnc(CNC(=O)c2c(=O)c3ccc(N4CCCN(C)CC4)nc3n3c2sc2ccccc23)cn1 = Yes

# next molecule below
Please indicate how the test categorized CCCS(=O)(=O)Nc1ccc(F)c(C(=O)c2c[nH]c3ncc(-c4ccc(Cl)cc4)cc23)c1F + CN(C)c1ccc(Nc2c3ccc(NC(=O)CCN4CCCC4)cc3nc3cc(NC(=O)CCN4CCCC4)ccc23)cc1 .
No

----------
Test system: 885512-296-R-J2-PDC complex spheroid viability
Assay: Anticancer human tumor 885512-296-R-J2-PDC cell line growth inhibition [GQUAD];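 further: spheroids exposed to the compounds for one week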
Settings: curve of first compound; second compound 1 µM
Text: DNA G-quadruplex Stabilizer Agents in Combinations in Complex Spheroids A high-throughput screen of multi-cell type tumor spheroids was designed to identify active combinations of DNA G-quadruplex stabilizer agents and targeted small molecules. […] Compounds. […] If the clinical Cmax for an agent had not been determined, the highest concentration tested was 10 microM. […]
parameter: IC50 (µM)
Just the number in µM, nothing appended.

CCCS(=O)(=O)Nc1ccc(F)c(C(=O)c2c[nH]c3ncc(-c4ccc(Cl)cc4)cc23)c1F + CN(C)c1ccc(Nc2c3ccc(NC(=O)CCN4CCCC4)cc3nc3cc(NC(=O)CCN4CCCC4)ccc23)cc1 = 6.7
Cn1ncnc1[C@H]1c2n[nH]c(=O)c3cc(F)cc(c23)N[C@@H]1c1ccc(F)cc1 + CN(C)c1ccc(Nc2c3ccc(NC(=O)CCN4CCCC4)cc3nc3cc(NC(=O)CCN4CCCC4)ccc23)cc1 = 0.195
CC[C@@]1(O)C(=O)OCc2c1cc1n(c2=O)Cc2cc3c(CN(C)C)c(O)ccc3nc2-1 + Cc1[nH]c2ccc(F)cc2c1-c1nc2c3cccnc3c3ncccc3c2[nH]1 = 0.0198

Kindly review the next molecule as well.
Consider COc1cc(C2c3cc4c(cc3C(OC3OC5COC(C)OC5C(O)C3O)C3COC(=O)C23)OCO4)cc(OC)c1O (stereo not given) + Cc1[nH]c2ccc(F)cc2c1-c1nc2c3cccnc3c3ncccc3c2[nH]1 . Its measured IC50 is 0.578

----------
system: 885512-296-R-J2-PDC complex spheroid viability; assay: Anticancer human tumor 885512-296-R-J2-PDC cell line growth inhibition [GQUAD]; settings: second compound 0.316 µM; first compound 0.1 µM; stronger effect = lower value;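 further: spheroids exposed to the compounds for one week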;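 on viability, T/C: percent of tumor spheroid viability relative to DMSO vehicle control wells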
parameter: viability, T/C (%)
Just the number in %, nothing appended.

Known viability, T/C results, listed for orientation:
CC(=O)O[C@H]1C(=O)[C@@]2(C)[C@H]([C@H](OC(=O)c3ccccc3)[C@]3(O)C[C@H](OC(=O)[C@H](O)[C@@H](NC(=O)c4ccccc4)c4ccccc4)C(C)=C1C3(C)C)[C@]1(OC(C)=O)CO[C@@H]1C[C@@H]2O + Cc1cnc(CNC(=O)c2c(=O)c3ccc(N4CCCN(C)CC4)nc3n3c2sc2ccccc23)cn1 = 6.45
COc1ccc([C@@H](O)c2cc(-c3ncnc4cc(N5CCOCC5)ccc34)c(F)cc2Cl)nn1 + Cc1[nH]c2ccc(F)cc2c1-c1nc2c3cccnc3c3ncccc3c2[nH]1 = 96.7
C=CC(=O)N1CCN(c2nc(=O)n(-c3c(C)ccnc3C(C)C)c3nc(-c4c(O)cccc4F)c(F)cc23)C(C)C1 (stereo not given) + CN(C)c1ccc(Nc2c3ccc(NC(=O)CCN4CCCC4)cc3nc3cc(NC(=O)CCN4CCCC4)ccc23)cc1 = 97.9
COc1cccc2c1C(=O)c1c(O)c3c(c(O)c1C2=O)CC(O)(C(=O)CO)CC3OC1CC(N)C(O)C(C)O1 (stereo not given) + Cc1cnc(CNC(=O)c2c(=O)c3ccc(N4CCCN(C)CC4)nc3n3c2sc2ccccc23)cn1 = 23.7
CC1COCCN1c1cc(C2(O)CC3CCC(C2)O3)c2cnn(-c3ccn[nH]3)c2n1 (stereo not given) + Cc1[nH]c2ccc(F)cc2c1-c1nc2c3cccnc3c3ncccc3c2[nH]1 = 3.01
COc1cc(C2c3cc4c(cc3C(OC3OC5COC(C)OC5C(O)C3O)C3COC(=O)C23)OCO4)cc(OC)c1O (stereo not given) + Cc1[nH]c2ccc(F)cc2c1-c1nc2c3cccnc3c3ncccc3c2[nH]1 = 98.4

Consider CCCS(=O)(=O)Nc1ccc(F)c(C(=O)c2c[nH]c3ncc(-c4ccc(Cl)cc4)cc23)c1F + Cc1[nH]c2ccc(F)cc2c1-c1nc2c3cccnc3c3ncccc3c2[nH]1 . Its measured viability, T/C is 74

Consider O=C(c1cc(Cc2n[nH]c(=O)c3ccccc23)ccc1F)N1CCN(C(=O)C2CC2)CC1 + Cc1[nH]c2ccc(F)cc2c1-c1nc2c3cccnc3c3ncccc3c2[nH]1 . Its measured viability, T/C is 99.2

Consider Cc1cccc(N(C)C(=O)C2C(O)CCN2c2nc(C)cc(C(F)(F)F)c2C#N)c1 (stereo not given) + CN(C)c1ccc(Nc2c3ccc(NC(=O)CCN4CCCC4)cc3nc3cc(NC(=O)CCN4CCCC4)ccc23)cc1 . Its measured viability, T/C is 99.6

Consider COc1cccc2c1C(=O)c1c(O)c3c(c(O)c1C2=O)CC(O)(C(=O)CO)CC3OC1CC(N)C(O)C(C)O1 (stereo not given) + CN(C)c1ccc(Nc2c3ccc(NC(=O)CCN4CCCC4)cc3nc3cc(NC(=O)CCN4CCCC4)ccc23)cc1 . Its measured viability, T/C is 35.2

Consider CC(C)(O)C1CCC(Nc2ccc3ncc(-c4cccc(C(F)(F)F)c4)n3n2)CC1 (stereo not given) + Cc1cnc(CNC(=O)c2c(=O)c3ccc(N4CCCN(C)CC4)nc3n3c2sc2ccccc23)cn1 . Its measured viability, T/C is 23.7

Consider CC1COCCN1c1cc(C2(S(C)(=N)=O)CC2)nc(-c2ccnc3[nH]ccc23)n1 (stereo not given) + CN(C)c1ccc(Nc2c3ccc(NC(=O)CCN4CCCC4)cc3nc3cc(NC(=O)CCN4CCCC4)ccc23)cc1 . Its measured viability, T/C is 102

Consider C#Cc1c(F)ccc2cc(O)cc(-c3ncc4c(N5CC6CCC(C5)N6)nc(OCC56CCCN5CC(F)C6)nc4c3F)c12 (stereo not given) + Cc1cnc(CNC(=O)c2c(=O)c3ccc(N4CCCN(C)CC4)nc3n3c2sc2ccccc23)cn1 . Its measured viability, T/C is 26.6

Consider CCCS(=O)(=O)Nc1ccc(F)c(C(=O)c2c[nH]c3ncc(-c4ccc(Cl)cc4)cc23)c1F + CN(C)c1ccc(Nc2c3ccc(NC(=O)CCN4CCCC4)cc3nc3cc(NC(=O)CCN4CCCC4)ccc23)cc1 . Its measured viability, T/C is 102

Consider CC(C)n1c(=O)n(C)c2cnc3cc(F)c(-c4ccc(OCCCN5CCCCC5)nc4)cc3c21 + CN(C)c1ccc(Nc2c3ccc(NC(=O)CCN4CCCC4)cc3nc3cc(NC(=O)CCN4CCCC4)ccc23)cc1 . Its measured viability, T/C is 69.8

Consider CC(C)n1c(=O)n(C)c2cnc3cc(F)c(-c4ccc(OCCCN5CCCCC5)nc4)cc3c21 + Cc1cnc(CNC(=O)c2c(=O)c3ccc(N4CCCN(C)CC4)nc3n3c2sc2ccccc23)cn1 . Its measured viability, T/C is 13.1

Consider C=CC(=O)N1CCN(c2nc(=O)n(-c3c(C)ccnc3C(C)C)c3nc(-c4c(O)cccc4F)c(F)cc23)C(C)C1 (stereo not given) + Cc1[nH]c2ccc(F)cc2c1-c1nc2c3cccnc3c3ncccc3c2[nH]1 . Its measured viability, T/C is 103

Consider CCCS(=O)(=O)Nc1ccc(F)c(C(=O)c2c[nH]c3ncc(-c4ccc(Cl)cc4)cc23)c1F + Cc1cnc(CNC(=O)c2c(=O)c3ccc(N4CCCN(C)CC4)nc3n3c2sc2ccccc23)cn1 . Its measured viability, T/C is 24.9

Consider Cc1cccc(N(C)C(=O)C2C(O)CCN2c2nc(C)cc(C(F)(F)F)c2C#N)c1 (stereo not given) + Cc1[nH]c2ccc(F)cc2c1-c1nc2c3cccnc3c3ncccc3c2[nH]1 . Its measured viability, T/C is 98.9

Consider C#Cc1c(F)ccc2cc(O)cc(-c3ncc4c(N5CC6CCC(C5)N6)nc(OCC56CCCN5CC(F)C6)nc4c3F)c12 (stereo not given) + CN(C)c1ccc(Nc2c3ccc(NC(=O)CCN4CCCC4)cc3nc3cc(NC(=O)CCN4CCCC4)ccc23)cc1 . Its measured viability, T/C is 99.3
